Target: BSA (Bos taurus, UniProt P02769)
Construct: purchased Millipore Sigma-Aldrich
Sequence (P02769 25-607): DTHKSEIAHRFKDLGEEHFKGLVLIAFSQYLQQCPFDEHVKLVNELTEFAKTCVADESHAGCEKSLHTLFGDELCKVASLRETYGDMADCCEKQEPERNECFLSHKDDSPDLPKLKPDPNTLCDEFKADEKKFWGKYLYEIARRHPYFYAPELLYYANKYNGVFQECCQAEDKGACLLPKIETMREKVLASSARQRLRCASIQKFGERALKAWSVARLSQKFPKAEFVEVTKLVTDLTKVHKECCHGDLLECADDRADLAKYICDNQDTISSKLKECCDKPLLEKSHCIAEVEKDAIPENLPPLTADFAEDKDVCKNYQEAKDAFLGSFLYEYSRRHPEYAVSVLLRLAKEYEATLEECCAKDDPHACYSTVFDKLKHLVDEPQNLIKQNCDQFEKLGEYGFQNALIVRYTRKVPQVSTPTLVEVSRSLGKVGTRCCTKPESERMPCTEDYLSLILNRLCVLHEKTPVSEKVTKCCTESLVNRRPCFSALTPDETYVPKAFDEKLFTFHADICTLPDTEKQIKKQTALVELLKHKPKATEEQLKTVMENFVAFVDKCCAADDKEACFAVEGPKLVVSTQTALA
Assay: Far-UV CD secondary structure of BSA (CONTIN-LL deconvolution)
Format: physicochemical, bovine
Parameters: unit not given here
Details: 1.0 mg/mL BSA, 55 mM component, 25 °C
From the text: Circular dichroism (CD) is widely used to study the secondary structures of proteins, peptides and nucleic acids, because it requires a low concentration sample, is a nondestructive method, allows studying a wide range of variables (temperature, pH, etc.), and provides information on the effect of added ligands on protein folding and interactions. […]
Reported Turns values for the following compounds.
MEASUREMENT LABEL: Turns

• CCn1cc[n+](C)c1.O=S(=O)([O-])C(F)(F)C(F)(F)C(F)(F)C(F)(F)F = 0.140
• C[N+](C)(C)CCO.C[N+](C)(C)CCO.O=P([O-])(O)O.O=P([O-])(O)O [[N1112(OH)][H2PO4]] = 0.153
• CCCCn1cc[n+](C)c1.O=S(=O)([O-])C(F)(F)F [[C4C1Im][CF3SO3]] = 0.131
• C[N+](C)(C)CCO.O=S(=O)([O-])C(F)(F)C(F)(F)C(F)(F)C(F)(F)F [[N1112(OH)][C4F9SO3]] = 0.144
• OC[C@H]1O[C@@](CO)(O[C@H]2O[C@H](CO)[C@@H](O)[C@H](O)[C@H]2O)[C@@H](O)[C@@H]1O = 0.138

====

biological target: BSA (Bos taurus); construct: purchased Millipore Sigma-Aldrich; test: Far-UV CD secondary structure of BSA (CONTIN-LL deconvolution); format: physicochemical, bovine; conditions: 1.0 mg/mL BSA, 5 mM component, 25 °C
MEASUREMENT LABEL: Distorted Alpha Helix

- CCCCn1cc[n+](C)c1.O=S(=O)([O-])C(F)(F)F [[C4C1Im][CF3SO3]]: 0.209
- C[N+](C)(C)CCO.O=S(=O)([O-])C(F)(F)C(F)(F)C(F)(F)C(F)(F)F [[N1112(OH)][C4F9SO3]]: 0.222
- OC[C@H]1O[C@@](CO)(O[C@H]2O[C@H](CO)[C@@H](O)[C@H](O)[C@H]2O)[C@@H](O)[C@@H]1O: 0.225
- CCn1cc[n+](C)c1.O=S(=O)([O-])C(F)(F)C(F)(F)C(F)(F)C(F)(F)F: 0.207
- C[N+](C)(C)CCO.C[N+](C)(C)CCO.O=P([O-])(O)O.O=P([O-])(O)O [[N1112(OH)][H2PO4]]: 0.203

====

Reported Regular Beta Sheet values for the following compounds.
target: BSA (Bos taurus); construct: purchased Millipore Sigma-Aldrich; test: Far-UV CD secondary structure of BSA (CONTIN-LL deconvolution); format: physicochemical, bovine; conditions: 1.0 mg/mL BSA, 120 mM component, 25 °C
MEASUREMENT LABEL: Regular Beta Sheet

- C[N+](C)(C)CCO.C[N+](C)(C)CCO.O=P([O-])(O)O.O=P([O-])(O)O [[N1112(OH)][H2PO4]]: 0.018
- OC[C@H]1O[C@@](CO)(O[C@H]2O[C@H](CO)[C@@H](O)[C@H](O)[C@H]2O)[C@@H](O)[C@@H]1O: 0.000
- CCCCn1cc[n+](C)c1.O=S(=O)([O-])C(F)(F)F [[C4C1Im][CF3SO3]]: 0.000
- CCn1cc[n+](C)c1.O=S(=O)([O-])C(F)(F)C(F)(F)C(F)(F)C(F)(F)F: 0.014
- C[N+](C)(C)CCO.O=S(=O)([O-])C(F)(F)C(F)(F)C(F)(F)C(F)(F)F [[N1112(OH)][C4F9SO3]]: 0.012

====

Reported Unordered values for the following compounds.
Target: BSA (Bos taurus, UniProt P02769)
Construct: purchased Millipore Sigma-Aldrich
Experiment: Far-UV CD secondary structure of BSA (CONTIN-LL deconvolution)
Assay type: physicochemical, bovine
Parameters: unit not given here
Details: 1.0 mg/mL BSA, 5 mM component, 25 °C
Excerpt: Circular dichroism (CD) is widely used to study the secondary structures of proteins, peptides and nucleic acids, because it requires a low concentration sample, is a nondestructive method, allows studying a wide range of variables (temperature, pH, etc.), and provides information on the effect of added ligands on protein folding and interactions. […]
MEASUREMENT LABEL: Unordered

* C[N+](C)(C)CCO.O=S(=O)([O-])C(F)(F)C(F)(F)C(F)(F)C(F)(F)F [[N1112(OH)][C4F9SO3]] | 0.192
* CCCCn1cc[n+](C)c1.O=S(=O)([O-])C(F)(F)F [[C4C1Im][CF3SO3]] | 0.227
* CCn1cc[n+](C)c1.O=S(=O)([O-])C(F)(F)C(F)(F)C(F)(F)C(F)(F)F | 0.215
* C[N+](C)(C)CCO.C[N+](C)(C)CCO.O=P([O-])(O)O.O=P([O-])(O)O [[N1112(OH)][H2PO4]] | 0.265
* OC[C@H]1O[C@@](CO)(O[C@H]2O[C@H](CO)[C@@H](O)[C@H](O)[C@H]2O)[C@@H](O)[C@@H]1O [Sucrose, sucrose] | 0.19

====

molecular target: BSA (Bos taurus); construct: purchased Millipore Sigma-Aldrich; assay: Far-UV CD secondary structure of BSA (CONTIN-LL deconvolution); assay type: physicochemical, bovine; parameters: unit not given here; details: 1.0 mg/mL BSA, 90 mM component, 25 °C
Reported Regular Alpha Helix values for the following compounds.
MEASUREMENT LABEL: Regular Alpha Helix

- OC[C@H]1O[C@@](CO)(O[C@H]2O[C@H](CO)[C@@H](O)[C@H](O)[C@H]2O)[C@@H](O)[C@@H]1O [Sucrose, sucrose]: 0.4
- C[N+](C)(C)CCO.C[N+](C)(C)CCO.O=P([O-])(O)O.O=P([O-])(O)O [[N1112(OH)][H2PO4]]: 0.294
- CCCCn1cc[n+](C)c1.O=S(=O)([O-])C(F)(F)F [[C4C1Im][CF3SO3]]: 0.382
- C[N+](C)(C)CCO.O=S(=O)([O-])C(F)(F)C(F)(F)C(F)(F)C(F)(F)F [[N1112(OH)][C4F9SO3]]: 0.376
- CCn1cc[n+](C)c1.O=S(=O)([O-])C(F)(F)C(F)(F)C(F)(F)C(F)(F)F: 0.382

====

molecular target: BSA (Bos taurus, UniProt P02769); construct: purchased Millipore Sigma-Aldrich; test: DSC thermal unfolding of BSA in water and aqueous solutions of ABS phase-forming components; format: physicochemical, bovine; settings: 1.0 mg/mL BSA, 1 mM component
Rule: ΔG of 20 kcal/mol or more gives t; anything lower gives f.

- OC[C@H]1O[C@@](CO)(O[C@H]2O[C@H](CO)[C@@H](O)[C@H](O)[C@H]2O)[C@@H](O)[C@@H]1O: t
- CCCCn1cc[n+](C)c1.O=S(=O)([O-])C(F)(F)F [[C4C1Im][CF3SO3]]: f
- C[N+](C)(C)CCO.O=S(=O)([O-])C(F)(F)C(F)(F)C(F)(F)C(F)(F)F [[N1112(OH)][C4F9SO3]]: t
- C[N+](C)(C)CCO.C[N+](C)(C)CCO.O=P([O-])(O)O.O=P([O-])(O)O [[N1112(OH)][H2PO4]]: f

====

target: FITC-BSA (Bos taurus, UniProt P02769); construct: purchased Millipore Sigma-Aldrich; assay: MST binding to FITC-BSA; parameters: species or system bovine; conditions: 0.41 μM BSA; max. conc. first capillary in 1st CAC range; read-out: Kd
Sequence (P02769 25-607): as above
MEASUREMENT LABEL: Kd (mM)

- O=S(=O)(O)C(F)(F)C(F)(F)C(F)(F)C(F)(F)F [[N1112(OH)][C4F9SO3]]: 0.86
- CCn1cc[n+](C)c1.O=S(=O)([O-])C(F)(F)C(F)(F)C(F)(F)C(F)(F)F: 1.61

====

target: BSA (Bos taurus); construct: purchased Millipore Sigma-Aldrich; assay: Far-UV CD secondary structure of BSA (CONTIN-LL deconvolution); assay type: physicochemical, bovine; design: unit not given here; conditions: 1.0 mg/mL BSA, 25 mM component, 25 °C
Rule: Distorted Alpha Helix of 0.2 or more gives condition met; anything lower gives condition not met.

- C[N+](C)(C)CCO.O=S(=O)([O-])C(F)(F)C(F)(F)C(F)(F)C(F)(F)F [[N1112(OH)][C4F9SO3]]: condition met
- CCCCn1cc[n+](C)c1.O=S(=O)([O-])C(F)(F)F [[C4C1Im][CF3SO3]]: condition not met

====

biological target: BSA (Bos taurus); construct: purchased Millipore Sigma-Aldrich; test: Far-UV CD secondary structure of BSA (CONTIN-LL deconvolution); assay type: physicochemical, bovine; set-up: unit not given here; conditions: 1.0 mg/mL BSA, 0.1 mM component, 25 °C
MEASUREMENT LABEL: Regular Beta Sheet

- CCn1cc[n+](C)c1.O=S(=O)([O-])C(F)(F)C(F)(F)C(F)(F)C(F)(F)F: 0.000
- C[N+](C)(C)CCO.O=S(=O)([O-])C(F)(F)C(F)(F)C(F)(F)C(F)(F)F [[N1112(OH)][C4F9SO3]]: 0.000
- CCCCn1cc[n+](C)c1.O=S(=O)([O-])C(F)(F)F [[C4C1Im][CF3SO3]]: 0.008
- C[N+](C)(C)CCO.C[N+](C)(C)CCO.O=P([O-])(O)O.O=P([O-])(O)O [[N1112(OH)][H2PO4]]: 0.000
- OC[C@H]1O[C@@](CO)(O[C@H]2O[C@H](CO)[C@@H](O)[C@H](O)[C@H]2O)[C@@H](O)[C@@H]1O [Sucrose, sucrose]: 0.000
